Origin of values: patent US20230357320A1

# CONDITION DETAILS: PAMPA;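 note: Phospholipid-membrane PAMPA, donor and acceptor in DPBS pH 7.4 with 5% DMSO, 37 °C for 5 h, compound in each well quantified by reverse-phase HPLC-MS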
Starred links: 1 amine or outer side, 2 acyl side, 3 side chain; linkers in the order of their positions; H or OH if unused. Positions of bridges follow the written chain, without caps; N, C: chain ends. Non-standard residues stand in square brackets, D forms with d. Residues, ends and D or L forms follow the SMILES beside them. X1 = O=C([C@]1(CC=[*:3])CCCN1[*:1])[*:2]; S5 = C=CCCC[C@](C)(N)C(=O)O
MEASURED PARAMETER: % Retention

# MOLECULE, MEASURED PARAMETER, REPORTED MEASUREMENT
measured = [
    ("CC[C@H](C)[C@@H]1NC(=O)[C@]2(CC=CCCC[C@@](C)(C(=O)N[C@@H](Cc3ccc(O)cc3)C(=O)N[C@@H](CC(C)C)C(=O)N[C@@H](CC(C)C)C(=O)N[C@@H](CC(=O)O)C(=O)NC)NC(=O)[C@H](CC(C)C)NC1=O)CCCN2C(C)=O [PLL5-4, Ac-PL3-Ile-Leu-S5-Tyr-Leu-Leu-Asp-NHMe] (Ac-[X1]IL[S5]YLLD-NHMe; staple 1-4)", "% Retention", "100 ± 1%"),
    ("CNC(=O)[C@H](CC(=O)O)NC(=O)[C@H](CC(=O)O)NC(=O)[C@H](CC(C)C)NC(=O)[C@H](CC(C)C)NC(=O)[C@H](Cc1ccc(O)cc1)NC(=O)[C@]1(C)CCCC=CC[C@]2(CCCN2)C(=O)N[C@@H](CC(C)C)C(=O)N[C@@H](CC(C)C)C(=O)N1 (single isomer, unassigned)", "% Retention", "69 ± 2%"),
    ("CNC(=O)[C@@H](NC(=O)[C@H](CC(C)C)NC(=O)[C@H](CC(C)C)NC(=O)[C@H](Cc1ccc(O)cc1)NC(=O)[C@]1(C)CCCC=CC[C@]2(CCCN2C(C)=O)C(=O)N[C@@H](CC(C)C)C(=O)N[C@@H](CC(C)C)C(=O)N1)[C@@H](C)O [PLL5-10, Ac-PL3-Leu-Leu-S5-Tyr-Leu-Leu-Thr-NHMe] (Ac-[X1]LL[S5]YLLT-NHMe; staple 1-4)", "% Retention", "34 ± 0%"),
]
